assay.details: Half life in CD1 mouse blood at 1 mg/kg, iv administered as bolus dose measured up to 7 hrs by UPLC/MS/MS spectrometry analysis
Format: ADME, organism-based
Listed here are compounds together with their documented half-life.

Which value of half-life has been reported for C[C@H](NC(=O)NCc1nc2cccnc2n1Cc1ccc(F)cc1)c1ccc(F)cc1 in the records?
9 min

Now try C[C@H](NC(=O)C[S+]([O-])c1nc2cccnc2n1Cc1ccc(OC(F)(F)F)cc1)c1ccc(F)cc1 (stereo in doubt; 26a) .
13.2 min

Now try C[C@H](NC(=O)CSc1nc2cccnc2n1Cc1ccc(OC(F)(F)F)cc1)c1ccc(F)cc1 .
12 min

Attention now shifts to the item below.
Which value of half-life has been reported for C[C@H](NC(=O)CCc1nc2cccnc2n1Cc1ccc(OC(F)F)cc1)c1ccc(Cl)cc1 in the records?
22.2 min

###

test.target: UniProtKB Q13822
assay.details: Inhibition of human recombinant ATX using FS-3 as substrate incubated in dark for 45 mins by fluorescence assay
endpoint: IC50 (nM)
API: value field is a number in nM; no unit string.

Which value of IC50 has been reported for COc1ccc(CNC(=O)CCc2nc3cccnc3n2Cc2ccccc2)cc1 in the records?
40

###

assay.details: Half life in Balb-c nu/nu mouse blood at 100 mg/kg, po measured up to 7 hrs by UPLC/MS/MS spectrometry analysis
Format: ADME, organism-based
endpoint: half-life (h)
API: value field is a number in h; no unit string.

Which value of half-life has been reported for C[C@H](NC(=O)CCc1nc2cccnc2n1Cc1ccc(OC(F)(F)F)cc1)c1ccc(Cl)cc1 in the records?
1.3

###

test.target: Autotaxin (Homo sapiens, UniProt Q13822)
assay.details: Inhibition of human recombinant ATX using Rac-1-Palmitoyl-glycero-3-phosphocholine as substrate incubated for 2 hrs using ADHP fluorogenic peroxidase substrate by horseradish peroxidase/choline oxidase-coupled assay
Listed here are molecules together with their documented log10 IC50.
Record value = log10 of IC50 given in nM.

Which value of log10 IC50 has been reported for O=C(CCc1nc2cccnc2n1Cc1ccccc1)NCc1ccsc1 in the records?
3.39

Now try C[C@H](NC(=O)C[S+]([O-])c1nc2cccnc2n1Cc1ccc(OC(F)(F)F)cc1)c1ccc(F)cc1 (stereo in doubt; 26a) .
1.00

Now try O=C(CCc1nc2cccnc2n1Cc1ccccc1)NCCc1ccccc1 .
3.54

Now try O=C(CCc1nc2cccnc2n1Cc1ccccc1)NCc1ccccn1 .
4.04

---
Which value of log10 IC50 has been reported for O=C(CCc1nc2cccnc2n1Cc1ccccc1)NCc1ccccc1 in the records?
3.09

###

test.target: Autotaxin (Homo sapiens)
assay.details: Inhibition of ATX in human plasma assessed as decrease in hydrolysis of lysophosphatidylcholine by measuring choline release after 24 hrs by horseradish peroxidase/choline oxidase-coupled assay
Assay type: cell-free
Listed here are compounds together with their documented IC50.
API: value field is a number in µM; no unit string.

Use these answered entries as a reference point.
Which value of IC50 has been reported for COc1ccc(Cn2c(CCC(=O)N[C@H](C)c3ccccc3)nc3cccnc32)cc1 in the records?
8.5

Now try COc1ccc(CNC(=O)CCc2nc3cccnc3n2Cc2ccccc2)cc1 .
8.87

Now try O=C(CCc1nc2cccnc2n1Cc1ccccc1)NCC1CCCCC1 .
9.7

Now try C[C@H](NC(=O)NCc1nc2cccnc2n1Cc1ccc(F)cc1)c1ccc(F)cc1 .
1.05

Now try C[C@H](NC(=O)CSc1nc2cccnc2n1Cc1ccc(OC(F)(F)F)cc1)c1ccc(F)cc1 .
0.019

Attention now shifts to the item below.
Which value of IC50 has been reported for C[C@H](NC(=O)CCc1nc2ccncc2n1Cc1ccc(OC(F)(F)F)cc1)c1ccc(F)cc1 in the records?
0.032

The measurements presented in this section are drawn from ChEMBL document CHEMBL3864162.
